Measured values drawn from the supplement of paper PMC10627819 for this set.

tested on: B. subtilis 168; test: Bliss interaction score (quartile over a dose matrix) (fitness difference); higher = more antagonism (negative = synergy); settings: main component drawn;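 also: first quartile when negative (synergy) and third quartile when positive (antagonism)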
readout-type: Bliss interaction score
# respond with the number and nothing more

Exam item: Query: Bliss interaction score; subject: CC[C@H](C)[C@H](N)C1=N[C@H](C(=O)N[C@@H](CC(C)C)C(=O)N[C@H](CCC(=O)O)C(=O)N[C@H](C(=O)N[C@H]2CCCCNC(=O)[C@H](CC(N)=O)NC(=O)[C@@H](CC(=O)O)NC(=O)[C@H](Cc3cnc[nH]3)NC(=O)[C@@H](Cc3ccccc3)NC(=O)[C@H]([C@@H](C)CC)NC(=O)[C@@H](CCCN)NC2=O)[C@@H](C)CC)CS1 [Bacitracin] + C[C@H]1COc2c(N3CCN(C)CC3)c(F)cc3c(=O)c(C(=O)O)cn1c23 [Levofloxacin]
Marked response: 0.0288

Exam item: Query: Bliss interaction score; subject: CC[C@H](C)[C@H](N)C1=N[C@H](C(=O)N[C@@H](CC(C)C)C(=O)N[C@H](CCC(=O)O)C(=O)N[C@H](C(=O)N[C@H]2CCCCNC(=O)[C@H](CC(N)=O)NC(=O)[C@@H](CC(=O)O)NC(=O)[C@H](Cc3cnc[nH]3)NC(=O)[C@@H](Cc3ccccc3)NC(=O)[C@H]([C@@H](C)CC)NC(=O)[C@@H](CCCN)NC2=O)[C@@H](C)CC)CS1 [Bacitracin] + COc1cc(Cc2cnc(N)nc2N)cc(OC)c1OC [Trimethoprim]
Marked response: 0.0858

Exam item: Query: Bliss interaction score; subject: CC[C@H](C)[C@H](N)C1=N[C@H](C(=O)N[C@@H](CC(C)C)C(=O)N[C@H](CCC(=O)O)C(=O)N[C@H](C(=O)N[C@H]2CCCCNC(=O)[C@H](CC(N)=O)NC(=O)[C@@H](CC(=O)O)NC(=O)[C@H](Cc3cnc[nH]3)NC(=O)[C@@H](Cc3ccccc3)NC(=O)[C@H]([C@@H](C)CC)NC(=O)[C@@H](CCCN)NC2=O)[C@@H](C)CC)CS1 [Bacitracin] + CC1=C\[C@@H](O)CC(=O)Cc2nc(co2)C(=O)N2CCC=C2C(=O)O[C@H](C(C)C)[C@H](C)/C=C/C(=O)NC\C=C\1 [Virginiamycin M1]
Marked response: 0.0905

Exam item: Query: Bliss interaction score; subject: CC[C@H](C)[C@H](N)C1=N[C@H](C(=O)N[C@@H](CC(C)C)C(=O)N[C@H](CCC(=O)O)C(=O)N[C@H](C(=O)N[C@H]2CCCCNC(=O)[C@H](CC(N)=O)NC(=O)[C@@H](CC(=O)O)NC(=O)[C@H](Cc3cnc[nH]3)NC(=O)[C@@H](Cc3ccccc3)NC(=O)[C@H]([C@@H](C)CC)NC(=O)[C@@H](CCCN)NC2=O)[C@@H](C)CC)CS1 [Bacitracin] + CO[C@@H]1[C@@H](OC(N)=O)[C@@H](O)[C@H](Oc2ccc3c(O)c(NC(=O)c4ccc(O)c(CC=C(C)C)c4)c(=O)oc3c2C)OC1(C)C [Novobiocin]
Marked response: 0.126

Exam item: Query: Bliss interaction score; subject: CC[C@H](C)[C@H](N)C1=N[C@H](C(=O)N[C@@H](CC(C)C)C(=O)N[C@H](CCC(=O)O)C(=O)N[C@H](C(=O)N[C@H]2CCCCNC(=O)[C@H](CC(N)=O)NC(=O)[C@@H](CC(=O)O)NC(=O)[C@H](Cc3cnc[nH]3)NC(=O)[C@@H](Cc3ccccc3)NC(=O)[C@H]([C@@H](C)CC)NC(=O)[C@@H](CCCN)NC2=O)[C@@H](C)CC)CS1 [Bacitracin] + CN(C)C(=O)C(CCN1CCC(O)(c2ccc(Cl)cc2)CC1)(c1ccccc1)c1ccccc1 [Loperamide]
Marked response: -0.13

Exam item: Query: Bliss interaction score; subject: CC[C@H](C)[C@H](N)C1=N[C@H](C(=O)N[C@@H](CC(C)C)C(=O)N[C@H](CCC(=O)O)C(=O)N[C@H](C(=O)N[C@H]2CCCCNC(=O)[C@H](CC(N)=O)NC(=O)[C@@H](CC(=O)O)NC(=O)[C@H](Cc3cnc[nH]3)NC(=O)[C@@H](Cc3ccccc3)NC(=O)[C@H]([C@@H](C)CC)NC(=O)[C@@H](CCCN)NC2=O)[C@@H](C)CC)CS1 [Bacitracin] + Cn1nnc(-c2ccc(-c3ccc(N4C[C@H](CO)OC4=O)cc3F)cn2)n1 [Tedizolid]
Marked response: -0.0855
